Origin of the recorded values: patent US12503438B2

Target: AXL (Homo sapiens)
Construct: endogenous in cells
Sequence (P30530 26-894): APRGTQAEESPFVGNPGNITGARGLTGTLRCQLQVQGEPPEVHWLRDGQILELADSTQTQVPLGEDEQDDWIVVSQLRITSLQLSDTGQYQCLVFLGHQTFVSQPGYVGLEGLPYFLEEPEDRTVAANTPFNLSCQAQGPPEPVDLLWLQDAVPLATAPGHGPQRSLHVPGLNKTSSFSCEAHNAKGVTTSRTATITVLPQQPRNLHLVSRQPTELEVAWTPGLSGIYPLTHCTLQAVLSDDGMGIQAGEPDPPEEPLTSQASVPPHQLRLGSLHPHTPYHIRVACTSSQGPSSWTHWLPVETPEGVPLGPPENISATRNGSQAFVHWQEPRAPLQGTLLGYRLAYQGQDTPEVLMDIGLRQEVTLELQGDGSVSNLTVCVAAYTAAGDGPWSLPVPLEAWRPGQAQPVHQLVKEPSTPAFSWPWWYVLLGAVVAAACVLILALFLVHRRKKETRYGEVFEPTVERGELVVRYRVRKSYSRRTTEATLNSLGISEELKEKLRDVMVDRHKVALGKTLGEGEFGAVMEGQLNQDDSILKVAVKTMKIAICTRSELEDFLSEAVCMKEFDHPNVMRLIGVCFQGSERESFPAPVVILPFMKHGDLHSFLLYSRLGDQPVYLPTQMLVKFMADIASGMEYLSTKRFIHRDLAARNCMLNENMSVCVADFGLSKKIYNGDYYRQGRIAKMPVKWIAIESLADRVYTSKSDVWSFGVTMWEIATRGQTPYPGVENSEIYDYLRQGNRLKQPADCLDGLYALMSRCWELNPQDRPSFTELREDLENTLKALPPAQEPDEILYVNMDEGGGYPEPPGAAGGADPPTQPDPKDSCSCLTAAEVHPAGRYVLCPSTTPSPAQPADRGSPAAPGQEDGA
Test: AXL autophosphorylation ELISA in A-172 cells
Conditions: cellular activity, Gas6-stimulated, phospho-AXL ELISA
pIC50: −log10 of the molar value.
I'd appreciate it if you could supply pIC50 values for the items below.

// sample CN(C(=O)C1(C(=O)Nc2ccc(Oc3ccnc4cc(-c5cnn(C)c5)ccc34)cc2)CC1)c1ccc(F)cc1 [Compound 82A] , its pIC50 was < 6.52

// sample O=C(Nc1ccc(F)cc1)C1(C(=O)Nc2ccc(Oc3ccnc4cc(-c5ccnc(F)c5)ccc34)cc2)CC1 , its pIC50 was 7.00 to 8.00

// sample O=C(Nc1ccc(F)cc1)C1(C(=O)Nc2ccc(Oc3ccnc4cc(-c5cnn(CCN6CCOCC6)c5)ccc34)cc2)CC1 , its pIC50 was ≥ 8.00

// sample O=C(Nc1ccc(F)cc1)C1(C(=O)Nc2ccc(Oc3ccnc4cc(-c5cnc[nH]5)ccc34)cc2)CC1 , its pIC50 was 7.00 to 8.00

// sample Cc1cc2c(Oc3ccc(NC(=O)C4(C(=O)Nc5ccc(F)cc5)CC4)cc3)ccnc2cc1-c1ncc[nH]1 , its pIC50 was 7.00 to 8.00

// sample Cc1cc(-c2ccc3c(Oc4ccc(NC(=O)C5(C(=O)Nc6ccc(F)cc6)CC5)cc4)ccnc3c2)n[nH]1 , its pIC50 was 7.00 to 8.00

// sample O=C(Nc1ccc(F)cc1)C1(C(=O)Nc2ccc(Oc3ccnc4cc(-c5ccccn5)ccc34)cc2)CC1 , its pIC50 was 7.00 to 8.00

// sample C#Cc1ccc2c(Oc3ccc(NC(=O)C4(C(=O)Nc5ccc(F)cc5)CC4)cc3)ccnc2c1 , its pIC50 was < 6.52

// sample CC(=O)N1CCC(n2cc(-c3ccc4c(Oc5ccc(NC(=O)C6(C(=O)Nc7ccc(F)cc7)CC6)cc5)ccnc4c3)cn2)CC1 , its pIC50 was ≥ 8.00

// sample Cc1cn(-c2ccc3c(Oc4ccc(NC(=O)C5(C(=O)Nc6ccc(F)cc6)CC5)cc4)ccnc3c2)cn1 , its pIC50 was ≥ 8.00

// sample CC(=O)N1CCC(c2ccc3c(Oc4ccc(NC(=O)C5(C(=O)Nc6ccc(F)cc6)CC5)cc4)ccnc3c2)C1 (centres unmarked) , its pIC50 was 7.00 to 8.00

// sample Cc1cc2c(Oc3ccc(NC(=O)C4(C(=O)Nc5ccc(F)cc5)CC4)cc3)ccnc2cc1-c1cc[nH]n1 , its pIC50 was 7.00 to 8.00

// sample Cn1cc(-c2ccc3c(Oc4ccc(NC(=O)C5(C(=O)N6CCc7cc(F)ccc76)CC5)cc4)ccnc3c2)cn1 , its pIC50 was 7.00 to 8.00

// sample Cc1cc(-c2ccc3c(Oc4ccc(NC(=O)C5(C(=O)Nc6ccc(F)cc6)CC5)cc4)ccnc3c2)nn1C , its pIC50 was 7.00 to 8.00

* * *

I'd appreciate it if you could supply pIC50 values for the items below.
Target: UniProtKB P35968
Test: KDR autophosphorylation ELISA in HUVEC cells
Type: cell-based
Set-up: endogenous in cells; host or cells: HUVEC (Lonza #C2519A)
Settings: cellular activity, VEGF165-stimulated, phospho-KDR ELISA
pIC50: −log10 of the molar value.

// sample O=C(Nc1ccc(F)cc1)C1(C(=O)Nc2ccc(Oc3ccnc4cc(C5CCNC5)ccc34)cc2)CC1 (stereo not shown) , its pIC50 was 6.52 to 7.00

// sample Cn1ccc(-c2ccc3c(Oc4ccc(NC(=O)C5(C(=O)Nc6ccc(F)cc6)CC5)cc4)ccnc3c2)cc1=O , its pIC50 was ≥ 8.00

// sample O=C(Nc1ccc(F)cc1)C1(C(=O)Nc2ccc(Oc3ccnc4cc(-c5cnn(CF)c5)ccc34)cc2)CC1 , its pIC50 was ≥ 8.00

// sample O=C(Nc1ccc(F)cc1)C1(C(=O)Nc2ccc(Oc3ccnc4cc(-c5cccnc5)ccc34)cc2)CC1 , its pIC50 was ≥ 8.00

// sample Cc1cc2c(Oc3ccc(NC(=O)C4(C(=O)Nc5ccc(F)cc5)CC4)cc3)ccnc2cc1-c1cn[nH]c1 , its pIC50 was ≥ 8.00

// sample Nc1n[nH]cc1-c1ccc2c(Oc3ccc(NC(=O)C4(C(=O)Nc5ccc(F)cc5)CC4)cc3)ccnc2c1 , its pIC50 was 7.00 to 8.00

// sample CC(C)n1cc(-c2ccc3c(Oc4ccc(NC(=O)C5(C(=O)Nc6ccc(F)cc6)CC5)cc4)ccnc3c2)cn1 , its pIC50 was ≥ 8.00

* * *

Target: Human Axl (Homo sapiens, UniProt P30530, Q764R)
Construct: Human Axl (residues H473-A894 with Q764R, 161 nM)
Sequence (P30530 473-894 Q764R): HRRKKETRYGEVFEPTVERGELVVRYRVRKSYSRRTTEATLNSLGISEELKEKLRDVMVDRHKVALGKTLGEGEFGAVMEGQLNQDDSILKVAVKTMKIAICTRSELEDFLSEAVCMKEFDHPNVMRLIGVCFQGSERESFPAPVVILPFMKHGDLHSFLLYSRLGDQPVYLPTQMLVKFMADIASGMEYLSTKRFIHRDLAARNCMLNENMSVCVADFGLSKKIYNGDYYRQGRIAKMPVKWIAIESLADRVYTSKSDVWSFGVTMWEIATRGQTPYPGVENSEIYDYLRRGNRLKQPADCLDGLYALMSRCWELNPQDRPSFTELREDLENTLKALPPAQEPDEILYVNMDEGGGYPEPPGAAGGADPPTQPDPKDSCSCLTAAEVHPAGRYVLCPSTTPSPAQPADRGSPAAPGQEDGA
Assay: Human AXL kinase assay (33P-phosphoryl transfer radiometric, KinaseProfiler)
Conditions: biochemical activity; 10 μM ATP
pIC50: −log10 of the molar value.
measured_attribute: pIC50

// sample C[Si](C)(C)C#Cc1ccc2c(Oc3ccc(NC(=O)C4(C(=O)Nc5ccc(F)cc5)CC4)cc3)ccnc2c1 , its pIC50 was 6.00 to 7.00

// sample O=C(Nc1ccc(F)cc1)C1(C(=O)Nc2ccc(Oc3ccnc4cc(-c5cncnc5)ccc34)cc2)CC1 , its pIC50 was ≥ 8.00

// sample Cc1noc(C)c1-c1ccc2c(Oc3ccc(NC(=O)C4(C(=O)Nc5ccc(F)cc5)CC4)cc3)ccnc2c1 , its pIC50 was 6.00 to 7.00

// sample O=C(Nc1ccc(F)cc1)C1(C(=O)Nc2ccc(Oc3ccnc4cc(C5CCNC5)ccc34)cc2)CC1 (centres unmarked) , its pIC50 was 7.00 to 8.00

// sample O=C(Nc1ccc(F)cc1)C1(C(=O)Nc2ccc(Oc3ccnc4cc(-c5cnn(C6CCNCC6)c5)ccc34)cc2)CC1 , its pIC50 was ≥ 8.00

* * *

I'd appreciate it if you could supply pIC50 values for the items below.
Biological target: KDR (Homo sapiens)
Sequence (P35968 20-1356): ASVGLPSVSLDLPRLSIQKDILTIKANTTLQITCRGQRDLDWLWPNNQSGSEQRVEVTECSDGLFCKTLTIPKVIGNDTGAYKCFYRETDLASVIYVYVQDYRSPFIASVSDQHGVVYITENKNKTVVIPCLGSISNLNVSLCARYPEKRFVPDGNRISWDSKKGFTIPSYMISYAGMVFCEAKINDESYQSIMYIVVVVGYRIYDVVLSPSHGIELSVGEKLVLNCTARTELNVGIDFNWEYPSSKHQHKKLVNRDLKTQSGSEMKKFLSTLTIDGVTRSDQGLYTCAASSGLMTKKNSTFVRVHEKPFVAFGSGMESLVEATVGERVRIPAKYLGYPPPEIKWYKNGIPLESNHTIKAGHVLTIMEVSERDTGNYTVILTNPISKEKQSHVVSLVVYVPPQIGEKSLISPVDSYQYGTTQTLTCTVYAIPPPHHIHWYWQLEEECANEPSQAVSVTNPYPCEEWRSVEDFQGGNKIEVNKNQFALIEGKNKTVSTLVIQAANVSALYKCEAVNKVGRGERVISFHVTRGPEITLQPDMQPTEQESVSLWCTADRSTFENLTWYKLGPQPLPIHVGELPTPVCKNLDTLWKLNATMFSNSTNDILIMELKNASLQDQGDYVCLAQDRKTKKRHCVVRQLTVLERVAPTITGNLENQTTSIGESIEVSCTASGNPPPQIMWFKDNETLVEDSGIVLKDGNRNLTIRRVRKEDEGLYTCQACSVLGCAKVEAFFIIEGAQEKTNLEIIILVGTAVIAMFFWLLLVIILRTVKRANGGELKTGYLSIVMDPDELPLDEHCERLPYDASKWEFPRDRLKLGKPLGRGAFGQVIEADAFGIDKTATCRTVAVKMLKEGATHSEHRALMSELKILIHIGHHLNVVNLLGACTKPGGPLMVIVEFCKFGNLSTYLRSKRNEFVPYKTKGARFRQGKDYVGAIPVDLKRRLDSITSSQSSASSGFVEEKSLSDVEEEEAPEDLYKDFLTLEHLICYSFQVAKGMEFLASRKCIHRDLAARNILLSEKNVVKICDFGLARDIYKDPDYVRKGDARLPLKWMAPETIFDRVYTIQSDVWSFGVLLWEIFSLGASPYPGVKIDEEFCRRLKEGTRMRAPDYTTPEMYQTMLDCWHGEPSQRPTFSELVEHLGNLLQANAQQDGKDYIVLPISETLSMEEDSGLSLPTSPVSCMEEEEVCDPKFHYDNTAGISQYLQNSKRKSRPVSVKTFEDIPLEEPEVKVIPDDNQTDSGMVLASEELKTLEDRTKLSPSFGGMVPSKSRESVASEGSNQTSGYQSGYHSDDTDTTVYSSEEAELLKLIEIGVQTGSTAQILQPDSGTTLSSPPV
Assay: KDR autophosphorylation ELISA in HUVEC cells
Format: cell-based
Design: endogenous in cells; host or cells: HUVEC (Lonza #C2519A)
Conditions: cellular activity, VEGF165-stimulated, phospho-KDR ELISA
pIC50: −log10 of the molar value.

// sample COc1cc(-c2ccc3c(Oc4ccc(NC(=O)C5(C(=O)Nc6ccc(F)cc6)CC5)cc4)ccnc3c2)ccn1 , its pIC50 was 7.00 to 8.00

// sample COc1cc2c(Oc3ccc(NC(=O)C4(C(=O)Nc5ccc(F)cc5)CC4)cc3)ccnc2cc1-c1cnn(C)c1 , its pIC50 was 7.00 to 8.00

// sample Cn1cc(-c2ccc3c(Oc4ccc(NC(=O)C5(C(=O)N6CCc7cc(F)ccc76)CC5)cc4)ccnc3c2)cn1 , its pIC50 was < 6.52

// sample O=C(Nc1ccc(F)cc1)C1(C(=O)Nc2ccc(Oc3ccnc4cc(-c5ccn(CF)n5)ccc34)cc2)CC1 , its pIC50 was ≥ 8.00

// sample CN1CCC(n2cc(-c3ccc4c(Oc5ccc(NC(=O)C6(C(=O)Nc7ccc(F)cc7)CC6)cc5)ccnc4c3)cn2)CC1 , its pIC50 was 7.00 to 8.00

// sample O=C(Nc1ccc(F)cc1)C1(C(=O)Nc2ccc(Oc3ccnc4cc(-c5ccccn5)ccc34)cc2)CC1 , its pIC50 was 7.00 to 8.00

// sample Cc1cc2c(Oc3c(F)cc(NC(=O)C4(C(=O)Nc5ccc(F)cc5)CC4)c(F)c3F)ccnc2cc1-c1cnn(C)c1 , its pIC50 was 6.52 to 7.00

* * *

Target: Met (Homo sapiens)
Sequence (P08581 974-1390): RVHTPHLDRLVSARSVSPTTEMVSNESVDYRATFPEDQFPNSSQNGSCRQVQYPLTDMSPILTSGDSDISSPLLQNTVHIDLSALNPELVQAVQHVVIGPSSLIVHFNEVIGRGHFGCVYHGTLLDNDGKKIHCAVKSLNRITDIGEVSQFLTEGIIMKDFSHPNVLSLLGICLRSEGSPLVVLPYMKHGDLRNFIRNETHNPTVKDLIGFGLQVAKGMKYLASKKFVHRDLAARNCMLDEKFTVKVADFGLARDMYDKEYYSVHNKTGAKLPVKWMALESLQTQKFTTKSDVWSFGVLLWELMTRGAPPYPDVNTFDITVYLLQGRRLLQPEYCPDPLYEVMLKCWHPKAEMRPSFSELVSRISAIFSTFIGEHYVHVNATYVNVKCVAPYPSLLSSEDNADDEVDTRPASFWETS
Experiment: Human Met kinase assay (33P-phosphoryl transfer radiometric, KinaseProfiler)
Set-up: Human Met (residues R974-S1390 with A1209G and V1290L, 3.4 nM); purchased Eurofins Pharma Discovery Services UK Limited (KinaseProfiler service)
Conditions: biochemical activity; 10 μM ATP; read-out: c-Met IC50
pIC50: −log10 of the molar value.
measured_attribute: pIC50

// sample CNC(=O)c1cc2c(Oc3ccc(NC(=O)C4(C(=O)Nc5ccc(F)cc5)CC4)cc3)ccnc2cc1-c1cnn(C)c1 , its pIC50 was ≥ 8.00

// sample CC(C)(C)n1cc(-c2ccc3c(Oc4ccc(NC(=O)C5(C(=O)Nc6ccc(F)cc6)CC5)cc4)ccnc3c2)cn1 , its pIC50 was 7.00 to 8.00

// sample CN(C(=O)C1(C(=O)Nc2ccc(Oc3ccnc4cc(-c5cnn(C)c5)ccc34)cc2)CC1)c1ccc(F)cc1 [Compound 82A] , its pIC50 was 6.00 to 7.00

// sample Cc1noc(C)c1-c1ccc2c(Oc3ccc(NC(=O)C4(C(=O)Nc5ccc(F)cc5)CC4)cc3)ccnc2c1 , its pIC50 was 7.00 to 8.00

// sample O=C(Nc1ccc(F)cc1)C1(C(=O)Nc2ccc(Oc3ccnc4cc(-c5ccccn5)ccc34)cc2)CC1 , its pIC50 was 7.00 to 8.00

// sample Cn1ncc(-c2ccc3c(Oc4ccc(NC(=O)C5(C(=O)Nc6ccc(F)cc6)CC5)cc4)ccnc3c2)n1 , its pIC50 was ≥ 8.00

// sample O=C(Nc1ccc(F)cc1)C1(C(=O)Nc2ccc(Oc3ccnc4cc(-c5cnn(CC(F)(F)F)c5)ccc34)cc2)CC1 , its pIC50 was 7.00 to 8.00

// sample O=C(Nc1ccc(F)cc1)C1(C(=O)Nc2ccc(Oc3ccnc4cc(-c5ccn(C(F)F)n5)ccc34)cc2)CC1 , its pIC50 was 7.00 to 8.00
